Assay: Half life in dog at 0.3 mg/kg
Format: ADME, organism-based, Canis lupus familiaris
Set-up: dose 0.3 mg/kg
Conditions: in vivo
measured.endpoint: half-life (h)
Numbers only; they are read as h.

stdin: // query half-life value for entry CCCN1CCO[C@H](c2cccc(O)c2)C1
stdout: 1.6

* * *

Experiment: Tmax in rat at 2 mg/kg administered by intranasal route
Format: ADME, organism-based
Parameters: dose 2 mg/kg
Conditions: in vivo, inhaled or intranasal
measured.endpoint: Tmax (min)
Give just the number in min; leave the unit off.

stdin: Consider the compound CCCN1CCO[C@H](c2cccc(O)c2)C1 and give its measured Tmax.
stdout: 5

* * *

Assay: Dissociation constant, pKa of the compound
Assay type: physicochemical
measured.endpoint: pKa
I only need the number, thanks.

stdin: Returns the measured pKa for the input compound. Input: CCCN1CCO[C@H](c2cccc(O)c2)C1
stdout: 7.4

* * *

Target: D(2) dopamine receptor (Homo sapiens)
Sequence (P14416 whole entry): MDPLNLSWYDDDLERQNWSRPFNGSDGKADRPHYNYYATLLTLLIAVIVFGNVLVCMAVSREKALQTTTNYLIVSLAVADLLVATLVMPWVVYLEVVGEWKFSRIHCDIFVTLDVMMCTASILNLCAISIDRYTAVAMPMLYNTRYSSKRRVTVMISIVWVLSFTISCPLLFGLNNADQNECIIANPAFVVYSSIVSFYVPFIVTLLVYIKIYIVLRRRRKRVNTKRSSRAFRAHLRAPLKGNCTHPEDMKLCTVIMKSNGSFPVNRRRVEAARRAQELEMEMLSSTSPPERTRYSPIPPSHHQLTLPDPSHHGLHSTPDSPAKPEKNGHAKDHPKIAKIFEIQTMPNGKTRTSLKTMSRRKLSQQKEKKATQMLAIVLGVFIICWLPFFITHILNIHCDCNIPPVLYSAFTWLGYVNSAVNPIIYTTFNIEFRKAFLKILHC
Experiment: Agonist activity at human recombinant dopamine D2 receptor expressed in rat pituitary cells assessed as inhibition of forskolin-stimulated cAMP accumulation
pEC50: −log10 of the molar value.
measured.endpoint: pEC50

stdin: Item CCCN1CCOC(c2ccccc2)C1 (centres undefined) has what recorded pEC50?
stdout: < 5.00

stdin: And the next one, CCCN1CCOC(c2cccc(SC)c2)C1 (centres undefined) ?
stdout: < 5.00

stdin: Moving on to CCCN1CCC[C@@H]2Cc3nc(N)ncc3C[C@H]21 [QUINELORANE]
stdout: 8.70

stdin: Cool, now CCCN1CCOC(c2cccc(NS(C)(=O)=O)c2)C1 (centres undefined)
stdout: < 6.00

stdin: Quick one: CCCN1CCO[C@H](c2cccc(O)c2)C1
stdout: < 5.00

stdin: Can you handle CCCN(CCC)CCc1cccc2c1CC(=O)N2 [ROPINIROLE] next?
stdout: 7.08

stdin: Subsequent entry: CCCN1CCOC(c2cccc(N)c2)C1 (centres undefined)
stdout: < 6.00

stdin: Also check CCCN1CCO[C@@H](c2cc(O)cc(O)c2)C1
stdout: < 5.00

stdin: Follow-up entry: CCCN1CCOC(c2cccc(OC)c2)C1 (centres undefined)
stdout: < 5.00

stdin: Follow-up entry: CCCN1CCO[C@@H](c2cccc(O)c2)C1
stdout: < 5.00

stdin: Also, CCCN1CCOC(c2cccc(C(=O)O)c2)C1 (centres undefined) please.
stdout: < 5.00

stdin: Please give the result for CCCN1CCO[C@H](c2cc(O)cc(O)c2)C1 too.
stdout: < 5.00

stdin: // repeat for CCCN1CCOC(c2cccc(O)c2)C1 (centres undefined) and report
stdout: < 5.00

stdin: Now the molecule CC(=O)NCCCCN1CCOC(c2cccc(O)c2)C1 (centres undefined)
stdout: < 5.00

stdin: Continue with CCCN1CCOC(c2cccc(Cl)c2)C1 (centres undefined)
stdout: < 5.00

stdin: CCCN1CCOC(c2cccc(OC(F)(F)F)c2)C1 (centres undefined) ?
stdout: < 6.00

stdin: Now give it for CCN1CCOC(c2cccc(O)c2)C1 (centres undefined) too.
stdout: < 4.52

stdin: And then CCCN1CCOC(c2cccc(S(C)(=O)=O)c2)C1 (centres undefined) , what is it?
stdout: < 5.00

stdin: // repeat for C=CCN1CCOC(c2cccc(O)c2)C1 (centres undefined) and report
stdout: < 4.00

stdin: Also, Oc1cccc(C2CNCCO2)c1 (centres undefined) please.
stdout: 5.14

stdin: Follow-up item: CCCN1CCOC(c2cccc(-c3ncc[nH]3)c2)C1 (centres undefined)
stdout: < 5.00

stdin: Please answer likewise for CCCN1CCO[C@@H](c2ccc(F)c(O)c2)C1
stdout: < 5.00

stdin: Again, but for COCCN1CCOC(c2cccc(O)c2)C1 (centres undefined)
stdout: < 5.00

stdin: Let us now turn to CCCN1CCO[C@H](c2ccc(F)c(O)c2)C1
stdout: < 5.00

* * *

Kindly state pEC50 for each of the entries shown.
Target: D(3) dopamine receptor (Homo sapiens)
Sequence (P35462 whole entry): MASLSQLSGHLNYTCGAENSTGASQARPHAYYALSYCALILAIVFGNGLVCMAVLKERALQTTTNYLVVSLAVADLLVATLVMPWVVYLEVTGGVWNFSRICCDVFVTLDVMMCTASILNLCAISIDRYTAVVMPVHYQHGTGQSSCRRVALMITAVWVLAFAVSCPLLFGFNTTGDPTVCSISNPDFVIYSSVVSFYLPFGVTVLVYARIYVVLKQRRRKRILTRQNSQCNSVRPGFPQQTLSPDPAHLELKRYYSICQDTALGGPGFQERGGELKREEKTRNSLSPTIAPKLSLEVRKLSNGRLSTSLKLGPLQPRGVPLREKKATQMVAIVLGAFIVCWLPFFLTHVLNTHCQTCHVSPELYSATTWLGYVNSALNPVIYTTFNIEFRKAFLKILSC
Assay: Agonist activity at human recombinant dopamine D3 receptor expressed in CHO cells assessed as inhibition of forskolin-stimulated cAMP accumulation
pEC50: −log10 of the molar value.

stdin: Name the reported pEC50 value associated with the compound CCCN1CCOC(c2ccc(O)c(C(C)=O)c2)C1 (stereo not drawn)
stdout: < 6.00

stdin: And then CCCN1CCOC(c2cccc(SC)c2)C1 (stereo not drawn) , what is it?
stdout: < 6.00

stdin: Quick one: CCCN1CCOC(c2cccc(OC)c2)C1 (stereo not drawn)
stdout: < 6.00

stdin: Can you check CCCN1CCOC(c2ccc(O)c(C(N)=O)c2)C1 (stereo not drawn) next?
stdout: 6.37

stdin: What do you have for CCCN1CCOC(c2cc(O)cc(O)c2)C1 (stereo not drawn) ?
stdout: 7.43

stdin: Please do the same for CCCN1CCOC(c2cccc(O)c2)C1 (stereo not drawn) as well.
stdout: 7.57

stdin: # iterate: CCCN1CCOC(c2ccc(O)c(CO)c2)C1 (stereo not drawn)
stdout: < 6.00

stdin: How about CCCN1CCO[C@@H](c2cc(O)cc(O)c2)C1 ?
stdout: < 5.00

* * *

Assay: Half life in rat at 2 mg/kg administered by intranasal route
Format: ADME, organism-based
Parameters: dose 2 mg/kg
Details: in vivo, inhaled or intranasal
measured.endpoint: half-life (min)
The response must be a number in min with no trailing unit.

stdin: So what does the record say about half-life for CCCN1CCO[C@H](c2cccc(O)c2)C1 ?
stdout: 18

* * *

Target: Voltage-gated inwardly rectifying potassium channel KCNH2 (Homo sapiens)
Sequence (Q12809 whole entry): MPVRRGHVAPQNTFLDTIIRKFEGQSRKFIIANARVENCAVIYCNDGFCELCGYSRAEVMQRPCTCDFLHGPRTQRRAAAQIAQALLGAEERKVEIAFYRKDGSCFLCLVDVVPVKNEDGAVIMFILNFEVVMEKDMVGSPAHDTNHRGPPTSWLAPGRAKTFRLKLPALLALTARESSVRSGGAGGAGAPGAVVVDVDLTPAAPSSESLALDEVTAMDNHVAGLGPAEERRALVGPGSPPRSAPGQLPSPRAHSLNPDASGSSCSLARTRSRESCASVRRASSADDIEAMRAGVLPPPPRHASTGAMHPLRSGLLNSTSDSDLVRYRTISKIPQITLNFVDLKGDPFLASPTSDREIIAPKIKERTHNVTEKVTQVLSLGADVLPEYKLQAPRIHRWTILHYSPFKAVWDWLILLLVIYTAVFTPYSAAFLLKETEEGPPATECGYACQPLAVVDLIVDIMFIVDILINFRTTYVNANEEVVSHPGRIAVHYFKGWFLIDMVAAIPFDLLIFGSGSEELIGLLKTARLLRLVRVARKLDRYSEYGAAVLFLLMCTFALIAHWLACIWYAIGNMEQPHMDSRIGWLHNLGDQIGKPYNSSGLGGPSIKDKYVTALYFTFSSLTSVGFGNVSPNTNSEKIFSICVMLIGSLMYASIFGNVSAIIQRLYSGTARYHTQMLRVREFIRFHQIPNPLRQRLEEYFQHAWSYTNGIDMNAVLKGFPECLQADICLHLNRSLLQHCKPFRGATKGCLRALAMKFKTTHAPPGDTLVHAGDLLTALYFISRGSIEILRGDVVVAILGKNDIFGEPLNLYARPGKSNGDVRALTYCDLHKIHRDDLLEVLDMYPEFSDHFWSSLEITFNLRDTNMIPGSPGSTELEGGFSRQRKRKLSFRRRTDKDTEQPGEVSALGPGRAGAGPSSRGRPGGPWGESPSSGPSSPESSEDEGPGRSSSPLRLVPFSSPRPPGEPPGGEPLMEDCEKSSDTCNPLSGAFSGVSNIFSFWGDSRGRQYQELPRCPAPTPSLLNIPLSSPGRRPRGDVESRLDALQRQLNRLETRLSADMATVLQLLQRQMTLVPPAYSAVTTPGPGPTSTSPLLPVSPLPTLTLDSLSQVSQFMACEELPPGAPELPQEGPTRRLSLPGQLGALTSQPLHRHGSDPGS
pKi: −log10 of the molar value.
measured.endpoint: pKi

stdin: Fill blank: measured pKi of the compound CCCN1CCO[C@H](c2cccc(O)c2)C1 is ____.
stdout: < 5.40

* * *

Assay: Distribution coefficient, log D at pH 7.4
Format: physicochemical
Settings: octanol/water
measured.endpoint: logD
Answer with a bare number; do not write a unit.

stdin: Request the reported logD associated with CCCN1CCO[C@H](c2cccc(O)c2)C1
stdout: 1

* * *

Target: D(3) dopamine receptor (Homo sapiens)
Assay: Agonist activity at human recombinant dopamine D3 receptor expressed in CHO cells assessed as inhibition of forskolin-stimulated cAMP accumulation
Assay type: functional, cell-based
measured.endpoint: EC50

stdin: Return reported EC50; argument: CCCN1CCOC(c2ccccc2)C1 (configuration not stated)
stdout: > 1000 nM

stdin: How about this compound: CCCN1CCOC(c2cccc(C(=O)O)c2)C1 (configuration not stated)
stdout: > 1000 nM

stdin: Next: CCCN1CCOC(c2cc(O)ccc2Br)C1 (configuration not stated)
stdout: > 10000 nM

stdin: Entry CCCN1CCO[C@H](c2cccc(O)c2)C1 please
stdout: 8 nM

stdin: What do you have for CCCN1CCOC(c2cccc(N)c2)C1 (configuration not stated) ?
stdout: > 1000 nM

stdin: Continue with CCCN1CCO[C@H](c2ccc(F)c(O)c2)C1
stdout: 36 nM

stdin: Consider next the compound CCCN1CCOC(c2ccc(O)c(-n3cnnc3)c2)C1 (configuration not stated) in the same way.
stdout: > 1000 nM

* * *

Experiment: Intranasal bioavailability in rat at 2 mg/kg
Type: ADME, organism-based
Conditions: in vivo, inhaled or intranasal
measured.endpoint: bioavailability (%)
# unit: % | format: bare number

stdin: What measured bioavailability goes with CCCN1CCO[C@H](c2cccc(O)c2)C1 ?
stdout: 20

* * *

Biological target: Muscarinic acetylcholine receptor M1 (Homo sapiens, UniProt P11229)
Sequence (P11229 whole entry): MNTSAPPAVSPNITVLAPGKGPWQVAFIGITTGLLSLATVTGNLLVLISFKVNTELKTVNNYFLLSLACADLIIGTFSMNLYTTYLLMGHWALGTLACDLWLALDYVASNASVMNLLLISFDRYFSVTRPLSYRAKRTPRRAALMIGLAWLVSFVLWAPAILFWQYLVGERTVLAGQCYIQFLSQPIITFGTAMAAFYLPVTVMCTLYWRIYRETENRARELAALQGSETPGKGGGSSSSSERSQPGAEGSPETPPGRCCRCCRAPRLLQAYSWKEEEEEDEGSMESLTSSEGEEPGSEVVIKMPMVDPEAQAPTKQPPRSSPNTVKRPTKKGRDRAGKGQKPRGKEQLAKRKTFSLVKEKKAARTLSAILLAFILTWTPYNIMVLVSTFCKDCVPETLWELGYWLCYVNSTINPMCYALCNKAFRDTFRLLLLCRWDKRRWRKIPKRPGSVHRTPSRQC
pKi: −log10 of the molar value.
measured.endpoint: pKi

stdin: Request: pKi, test system Muscarinic acetylcholine receptor M1 (Homo sapiens, UniProt P11229), entry CCCN1CCO[C@H](c2cccc(O)c2)C1
stdout: < 6.00

* * *

Kindly state half-life for each of the entries shown.
Assay: Stability in human hepatocytes
Assay type: ADME, cell-based, Liver, Hepatocyte
Report the figure in min without appending any unit label.

stdin: What value of half-life has been recorded for this entry: CCCN1CCO[C@H](c2ccc(F)c(O)c2)C1
stdout: 21

stdin: Next compound up: CCCN1CCO[C@H](c2cccc(O)c2)C1
stdout: 61
